This collection of values is drawn from patent US20190202925A1.

- measurement.target: T1, soluble cynomolgus TNFR2 (cynomolgus, UniProt A0A2K5VET2 132-366)
- T1 sequence: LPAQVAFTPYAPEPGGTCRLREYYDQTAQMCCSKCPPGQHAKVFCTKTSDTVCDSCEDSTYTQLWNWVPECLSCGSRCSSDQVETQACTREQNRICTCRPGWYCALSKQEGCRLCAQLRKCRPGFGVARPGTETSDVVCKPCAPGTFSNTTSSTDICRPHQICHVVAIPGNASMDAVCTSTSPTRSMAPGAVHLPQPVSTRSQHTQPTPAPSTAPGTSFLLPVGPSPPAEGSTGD
- experiment.description: competition ELISA: plate-bound soluble cynomolgus TNFR2, competitor biotinylated TNFα, streptavidin-HRP, A450
- Description: Soluble human TNFR2 (Sino Biological, 10417-H08H) or cynomolgus TNFR2 (Sino Biological, 90102-C08H) was coated on Nunc-Immuno™ plates at 0.1 μg/ml, 0.5 ug/ml, 1 μg/ml, and 5 μg/ml. […] Plates were developed using TMB and stopped with 3 M HCl.
Task for the reader: assign each of the following binders its reported pIC50.
Answers are plain numbers, as −log10 of the molar value.

Field: example entries. Status: answers known.
- binder: "chimeric SBT-004 (antibody, V domains shown, VH fused to a human IgG1 Fc domain; also called chSBT-004) VH: EVQLQQSGPEVGRPGSSVKISCKASGYTFTDYIMHWVKQSPGQGLEWIGWVDPEYGSTDYAEKFKKKATLTADTSSNTAYIQLSSLTSEDTATYFCARDDGSYSPFDYWGQGVMVTVSS VL: DIQMTQSPPSLSASLGDKVTITCQASQNINKYIAWYQQKPGKAPRLLIRYTSTLESGTPSRFSGSGSGRDYSFSISNVESEDIASYYCLQYVNLLTFGAGTKLEIK"
  numeric.readout: 7.51
- binder: "chimeric SBT-004b (antibody, human IgG1, V domains shown, Same heavy chain as chSBT-004 (human IgG1 Fc domain); also called chSBT-004b) VH: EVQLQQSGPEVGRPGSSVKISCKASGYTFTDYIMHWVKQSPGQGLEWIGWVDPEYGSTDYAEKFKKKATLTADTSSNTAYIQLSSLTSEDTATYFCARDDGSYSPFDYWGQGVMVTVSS VL: NIVMTQSPKSMSMSVGERVTLTCKASENVVTYVSWYQQKPEQSPKLLIYGASNRYTGVPDRFTGSGSATDFTLTISSVQAEDLADYHCGQGYSYPYTFGGGTKLEIK"
  numeric.readout: 7.82

Continue with the next binder.
Returns the measured pIC50 for the input binder. Input: chimeric SBT-002 (antibody, V domains shown, also called chSBT-002) VH: QVTLKESGPGILQPSQTLSLTCSFSGFSLSTSGMGVGWIRQPSGKGLEWLAHIWWDDDKFYNPSLKSQLTISKDTSRNQVFLKLTSVVTADTATYYCARLTGTRYFDYWGQGTTLTVSS VL: DVQMTQSPSSLSASLGGKVTITCKASQDINKFIAWYQHKPGKGPRLLIHYTSTLQPGIPSKFSGSGSGRDYSFSISNLEPEDIATYYCLQYGNLWTFGGGTKLEIT
7.56
